# protocol.summary: Quantitative High-Throughput drug screen in 47 multiple myeloma cell lines against the NCATS MIPE library collection: KMM1_JCRB cell viability assay (AID 1918960); note: nearly all actives have a fitted effect of over 30% in size; note: potency is the fitted concentration of half-maximal effect
# stated.conditions: KMM1 myeloma viability, CellTiter-Glo ATP luminescence, 48 h; series mostly up to 45.8 µM
Records with an inconclusive call do not appear. Activity calls are given as the source filed them. Calls come from the whole dose curve; as a rule, active = well fitted cell-killing curve with a large enough effect; inconclusive = small, poorly fitted or top-dose-only effect, or effect the other way; inactive = no such curve, though single readings can be large or run the other way.
measured.property: Potency

Worked cases, answers included:
CC(C[N+](C)(C)C)OC(N)=O (stereo unspecified) ... inactive
CC(C)NCC(O)COc1ccc(COCCOC(C)C)cc1 (stereo unspecified) ... inactive
CN1CCN(CCCN2c3ccccc3Sc3ccc(C(F)(F)F)cc32)CC1 ... inactive
CC(C=CC1=C(C)CCCC1(C)C)=CC=CC(C)=CC(=O)O ... inactive
CC(C)(C)OC(=O)CN(Cc1ccc(Cl)cc1)Cc1ccc([N+](=O)[O-])s1 ... inactive

Recorded Potency of O=C(C=Cc1ccc(/C=C/C(=O)Nc2ccc(C3=NCCN3)cc2)cc1)Nc1ccc(C2=NCCN2)cc1 , please.
inactive

Recorded Potency of CN(C)c1ccc(Nc2nc(N)n(C(=O)c3c(F)cccc3F)n2)cc1 , please.
11.8 µM (active)

Recorded Potency of Cc1cc(-c2ccc(CC(=O)Nc3ccc(-c4cccnc4)cc3)cc2)ccn1 , please.
14.8 µM (active)

Recorded Potency of Cc1ccccc1C(OCCN(C)C)c1ccccc1 (stereo unspecified) , please.
inactive

Recorded Potency of Cc1cnc(NC(=O)C2=C(O)c3ccccc3S(=O)(=O)N2C)s1 , please.
inactive

Recorded Potency of NC(=O)c1cnccn1 , please.
inactive

###

# target.or.system: Phenylethanolamine N-methyltransferase (Homo sapiens) (UniProt P11086)
# Sequence (P11086 whole entry, looked up): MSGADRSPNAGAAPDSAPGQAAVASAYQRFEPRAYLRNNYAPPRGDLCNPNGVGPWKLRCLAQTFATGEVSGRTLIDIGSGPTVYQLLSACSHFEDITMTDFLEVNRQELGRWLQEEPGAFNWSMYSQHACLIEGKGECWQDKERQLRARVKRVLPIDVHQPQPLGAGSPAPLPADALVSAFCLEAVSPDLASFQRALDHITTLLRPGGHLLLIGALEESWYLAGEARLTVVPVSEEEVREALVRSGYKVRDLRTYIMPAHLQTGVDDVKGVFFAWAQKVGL
# protocol.summary: Confirmatory Screen for Target Class Profiling of Small Molecule Inhibitors of Methyltransferases (AID 1745852)
# stated.conditions: MTase-Glo luminescence, SAH detection, recombinant enzyme; measured here: PNMT max response; stronger effect = lower value
measured.property: activity
Could you kindly put the unit after your number?

Worked cases, answers included:
CCN(CC)CCCC(C)Nc1ccnc2cc(Cl)ccc12 (configuration not stated) ... 0.752%
Cc1ccccc1C(OCCN(C)C)c1ccccc1 (configuration not stated) ... -1.88%

Recorded activity of Nc1nccc(-c2ccc3noc(-c4ccc(Cl)cc4)c3c2)n1 , please.
-0.0134%

Recorded activity of CCc1cncnc1N1CCN(Cc2nc3ccc(C(F)(F)F)cc3[nH]2)CC1 , please.
-14.9%

Recorded activity of Oc1ccc(C2CNCCc3c2cc(O)c(O)c3Cl)cc1 (configuration not stated) , please.
-4.58%

Recorded activity of COc1cc(Nc2ncc3c(n2)-c2ccc(Cl)cc2C(c2c(F)cccc2OC)=NC3)ccc1C(=O)O , please.
2.42%

Recorded activity of COc1cc2c(cc1OC)CN(CCc1ccc(NC(=O)c3cccc4c(=O)c5cccc(OC)c5[nH]c34)cc1)CC2 , please.
-10.7%

###

# protocol.summary: Quantitative High-Throughput drug screen in 47 multiple myeloma cell lines against the NCATS MIPE library collection: MM1R_ATCC cell viability assay (AID 1918981); note: nearly all actives have a fitted effect of over 35% in size; note: potency is the fitted concentration of half-maximal effect
# stated.conditions: MM1R multiple myeloma cells, CellTiter-Glo viability, 48 h; series mostly up to 45.8 µM
Results filed as inconclusive are left out. Calls of active or inactive are those of the source. Calls come from the whole dose curve; as a rule, active = well fitted cell-killing curve with a large enough effect; inconclusive = small, poorly fitted or top-dose-only effect, or effect the other way; inactive = no such curve, though single readings can be large or run the other way.
measured.property: Potency

Worked cases, answers included:
CC[C@@H](C)[C@H](NC(=O)[C@H](CC1CCCCC1)NC(=O)c1ccno1)C(=O)N1CCC2(CCc3ccccc32)CC1 ... 13.2 µM (active)
CCn1c(-c2nonc2N)nc2c(C#CC(C)(C)O)ncc(OC[C@H]3CCCNC3)c21 ... 0.0418 µM (active)
Cc1cc2c(C(C)C)c(O)c(O)c(C=O)c2c(O)c1-c1c(C)cc2c(C(C)C)c(O)c(O)c(C=O)c2c1O ... 13.2 µM (active)
CNCc1ccc(-c2[nH]c3cc(F)cc4c3c2CCNC4=O)cc1 ... inactive

Proceeding to the next molecule to report its Potency.
Recorded Potency of NC(=O)c1ccc(-c2nc(-c3ccc4c(c3)OCCO4)c(-c3ccccn3)[nH]2)cc1 , please.
inactive

###

# protocol.summary: qHTS profiling for inhibitors of Plasmodium falciparum (HB3) proliferation (AID 743324);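 note: 100% = DMSO vehicle wells and 0% = artemisinin-treated control wells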
# stated.conditions: Plasmodium falciparum HB3 blood-stage proliferation; at 28.7 µM (top of the series) unless noted
Mark each entry 1 if its remaining proliferation (% of control), lower = more inhibition sits below 40%, and -1 for all others.

Use these answered entries as a reference point.
Cc1ccc2c(c1)C(=O)[C@@]1(O)CCN(c3ccccc3)C1=N2 ... 1
CC1(C)Cc2c(-c3ccccc3)c(-c3ccc(Cl)cc3)c(CC(=O)O)n2C1 ... 1
c1ccc(-c2nn3c(c2-c2ccnc4cc(OCCN5CCOCC5)ccc24)CCC3)nc1 ... -1
COc1ccc2c3n(c(=NC(=O)c4cccnc4)nc2c1OC)CCN3 ... 1

Turning now to a further record.
In the record for CCC(C)N(C)C(=O)c1cc2ccccc2c(-c2ccccc2Cl)n1 (stereo not given) , is remaining proliferation (% of control), lower = more inhibition less than 40%?
-1

###

# protocol.summary: Quantitative High-Throughput drug screen in 47 multiple myeloma cell lines against the NCATS MIPE library collection: KMS11_JCRBsus cell viability assay (AID 1919873); note: nearly all actives have a fitted effect of over 50% in size
# stated.conditions: KMS11 myeloma viability, CellTiter-Glo ATP luminescence, 48 h; series mostly up to 45.8 µM
Inconclusive results are not listed. The source made the active and inactive calls. The call rests on the fitted dose curve; in most records, active means well fitted cell-killing curve with a large enough effect; inconclusive means small, poorly fitted or top-dose-only effect, or effect the other way; inactive means no such curve, though single readings can be large or run the other way.
Write down the outcome that applies. Available outcomes: active, inactive

Use these answered entries as a reference point.
CN[C@@H](C)C(=O)N[C@H]1CCCC[C@H]2CC[C@@H](C(=O)N[C@@H](c3ccccc3)c3cn(CCCCc4ccc(CCCCn5cc([C@@H](NC(=O)[C@@H]6CC[C@@H]7CCCC[C@H](NC(=O)[C@H](C)NC)C(=O)N76)c6ccccc6)nn5)cc4)nn3)N2C1=O ... inactive
CS(=O)(=O)c1cccc(CNc2nc(Nc3ccc4c(c3)CCC(=O)N4)ncc2C(F)(F)F)c1 ... active
N=c1nc(N2CCCCC2)cc(N)n1O ... inactive
O=C(NOC[C@H](O)CO)c1ccc(F)c(F)c1Nc1ccc(I)cc1F ... inactive
NCCCC(N)(C(=O)O)C(F)F (stereo unspecified) ... active
CS(=O)(=O)Oc1ccc2c(NC(N)=O)c(C(=O)c3ccc(Cl)cc3Cl)oc2c1 ... active
N[C@@H]1CONC1=O ... inactive
CCOC(=O)C1=C[C@]2(CC)CCCN3CCc4c(n1c1ccccc41)[C@@H]32 ... active
COc1ccc([C@@H]2CC(=O)c3c(O)cc(O[C@@H]4O[C@H](CO[C@@H]5O[C@@H](C)[C@H](O)[C@@H](O)[C@@H]5O)[C@@H](O)[C@H](O)[C@@H]4O)cc3O2)cc1O ... inactive
Nc1nc2c(ncn2COCCO)c(=O)[nH]1 ... inactive

So what was the verdict on Nc1nc2ccc(OC(F)(F)F)cc2s1 in this test?
inactive

So what was the verdict on OC(CN1CCC(Cc2ccc(F)cc2)CC1)c1ccc(Cl)cc1 (stereo unspecified) in this test?
inactive

So what was the verdict on NCCc1ccc(O)c(O)c1 in this test?
active

So what was the verdict on CCCC(CCC)C(=O)O in this test?
inactive

So what was the verdict on COc1ccc(CC2=NN3C([C@@H](CCc4ccccc4)[C@@H](C)O)=NC(C)C3C(=O)N2)cc1OC (stereo partly specified) in this test?
inactive

###

# protocol.summary: qHTS of pediatric cancer cell lines to identify multiple opportunities for drug repurposing: Primary screen for TC32 cells (AID 1347089); note: % is set by controls: 0 for no effect and ±100 for the full control effect; nearly all actives have a fitted effect of over 60% in size
# stated.conditions: TC32 Ewing sarcoma viability, CellTiter-Glo luminescence, 48 h; series mostly up to 45.8 µM
Records with an inconclusive call do not appear. Calls of active or inactive are those of the source. The call rests on the fitted dose curve; in most records, active means well fitted cell-killing curve with a large enough effect; inconclusive means small, poorly fitted or top-dose-only effect; inactive means flat fitted curve, though single readings scatter.
Write down the outcome that applies. Available outcomes: active, inactive

Use these answered entries as a reference point.
COc1ccc(C2=N[C@H](c3ccc(Cl)cc3)[C@H](c3ccc(Cl)cc3)N2C(=O)N2CCNC(=O)C2)c(OC(C)C)c1 ... inactive
O=C(Nc1cccnc1)N1CCC(Cc2cccc(Oc3ccc(C(F)(F)F)cn3)c2)CC1 ... inactive

So what was the verdict on CCOc1ccn(-c2ccc(F)cc2)c(=O)c1C(=O)Nc1ccc(Oc2ccnc(N)c2Cl)c(F)c1 in this test?
inactive

So what was the verdict on CC(C)(Sc1ccc(CCN(CCCCC2CCCCC2)C(=O)NC2CCCCC2)cc1)C(=O)O in this test?
inactive

So what was the verdict on Cc1ccc(NC(=O)c2cccc(C(C)(C)C#N)c2)cc1Nc1ccc2ncn(C)c(=O)c2c1 in this test?
inactive

###

# protocol.summary: qHTS profiling of the MIPE4 collection as inhibitors of Plasmodium falciparum (DD2) proliferation (AID 743345)
# stated.conditions: P. falciparum Dd2 in erythrocytes, SYBR Green DNA, 72 h; at 28.5 µM (top of the series) unless noted
Mark each entry Yes if its parasite growth remaining, % of DMSO control (lower = more inhibition) sits below 50%, and No for all others.

Use these answered entries as a reference point.
CCN(c1ccccc1)c1cc(NC)[n+](C)c(C)n1 ... No
CNC[C@H](O)c1cccc(O)c1 ... No
N#CC[C@H](C1CCCC1)n1cc(-c2ncnc3[nH]ccc23)cn1 ... No

Turning now to a further record.
In the record for Cc1oncc1C(=O)Nc1ccc(C(F)(F)F)cc1 , is parasite growth remaining, % of DMSO control (lower = more inhibition) less than 50%?
No
